- PROCEDURE_SUMMARY: chemical genetic growth profiling, strain panel (AID 1159580);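 also: tested at 20 µM; growth read once vehicle control cultures reached saturation at 30 °C; 1 = growth at the plate median or of vehicle wells; lower values mean less growth of the strain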
- CONDITION_DETAILS: S. cerevisiae deletion strains, growth OD, locus YHR030C, strain SLT2
Out of some 5,500 compounds screened, about 2,000 (36%) were called active. Not shown: some 18% with an inconclusive outcome. Rule as the data show it: active = normalized growth mostly below about 0.91 (no sharp cut-off); inconclusive = no clear call, values can overlap the other calls; inactive = mostly above about 0.92. The list shows a part of the results.
Just give me one of these, please: Yes (active), No (inactive)

The following molecules have reported results that may help.
O=C(O)c1ccccc1-c1c2cc(I)c(=O)c(I)c-2oc2c(I)c(O)c(I)cc12: No
OC(Cn1cncn1)(Cn1cncn1)c1ccc(F)cc1F: No

## Input What did this assay record as the result for CC(C)C(C)/C=C/C(C)[C@H]1CCC2C3=CCC4CC(=O)CC[C@]4(C)C3CC[C@@]21C (stereo partly drawn) ?
## Output No

###

- PROCEDURE_SUMMARY: chemical genetic growth profiling, strain panel (AID 1159580);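 also: tested at 20 µM; growth read once vehicle control cultures reached saturation at 30 °C; 1 = growth at the plate median or of vehicle wells; lower values mean less growth of the strain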
- CONDITION_DETAILS: S. cerevisiae deletion strains, growth OD, locus YHR142W, strain chs7
Hit rate of the full screen: of about 5,500 compounds, about 2,000 (36%) were called active. Another 18% or so got no clear call; they are omitted. Rule as the data show it: active = normalized growth mostly below about 0.91 (no sharp cut-off); inconclusive = no clear call, values can overlap the other calls; inactive = mostly above about 0.92. The list shows a part of the results.
Lab note: assign the record to one of True for active, False for inactive

Illustrative cases are given below, each with its answer.
C[C@H]1COC2=C1C(=O)C(=O)c1c2ccc2c1CCCC2(C)C: True
O=C1C=C2C=C[C@@H]3C[C@@]2(O1)[C@H]1CCCCN31: False

## Input Test call for this molecule, please: `Nc1ccc(N=Nc2ccccc2)c(N)n1`
## Output True

## Input // param item: CCCCCCCCCCCCCCCC(=O)OC1C(SC)OC(C(NC(=O)C2CC(CCC)CN2C)C(C)Cl)C(O)C1O (stereo not drawn) ; yields the recorded call
## Output False

## Input Recorded call for `Cc1c(Cl)cccc1Nc1ccccc1C(=O)O` ?
## Output True

## Input How did this test come out for `Cc1cc(NC(=O)C2=C(O)c3ccccc3S(=O)(=O)N2C)no1` ?
## Output False

## Input Assay outcome for `Cn1c(=O)c2[nH]cnc2n(C)c1=O` : what was it?
## Output False

###

- PROCEDURE_SUMMARY: chemical genetic growth profiling, strain panel (AID 1159580);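 also: tested at 20 µM; growth read once vehicle control cultures reached saturation at 30 °C; 1 = growth at the plate median or of vehicle wells; lower values mean less growth of the strain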
- CONDITION_DETAILS: S. cerevisiae deletion strains, growth OD, locus YFR010W, strain ubp6, active compounds read low
Hit rate of the full screen: of about 5,500 compounds, about 2,000 (36%) were called active. Inconclusive results (about 18%) are left out. This is one part of the list.
Listed next: entries and their corresponding normalized growth.
Hey, just send me the number, nothing else.

Some solved entries appear below for comparison.
CC(C)[C@@H]1CC[C@@H](C)C[C@H]1O: 0.989
C#CCCCCCCCCCCCC(O)CC(O)CO (stereo not given): 0.993
CN1C(C(=O)Nc2ccccn2)=C(O)c2ccccc2S1(=O)=O: 0.971
Cc1coc2c1C(=O)C(=O)c1c-2ccc2c1CCCC2(C)C: 0.902

Proceeding to the next molecule to report its normalized growth.
## Input What value of measured normalized growth is listed for `CCOC(=O)[C@H](CCc1ccccc1)N[C@@H](C)C(=O)N1[C@H](C(=O)O)C[C@@H]2CCC[C@@H]21` ?
## Output 0.989
